assay: qHTS assay to test for compound auto fluorescence at 460 nm (blue) in HEK293 cell free culture (AID 720681); conditions: cell-free medium, autofluorescence 405/460 nm (blue); series mostly up to 91.3 µM; further: on the % scale 0 is the no-effect control and ±100 the full control effect
The source made the active and inactive calls. The call rests on the fitted dose curve; in most records, active means well fitted curve in the direction sought with a large enough effect in the repeat runs; inconclusive means weak or mixed curves; inactive means flat fitted curve, though single readings scatter.
valueKind: fluorescence, % of fluorescent control

1) Cc1cc(O)c(C(C)C)cc1Cl = inactive
2) CCOC(=O)CC(=O)C(=O)OCC = inactive
3) O=C(Nc1ccc([N+](=O)[O-])cc1)Nc1ccc([N+](=O)[O-])cc1 = inactive
4) CC(C)C(=O)O = inactive

###

Target: Progesterone receptor (Homo sapiens) (UniProt P06401)
Sequence (P06401 whole entry, looked up): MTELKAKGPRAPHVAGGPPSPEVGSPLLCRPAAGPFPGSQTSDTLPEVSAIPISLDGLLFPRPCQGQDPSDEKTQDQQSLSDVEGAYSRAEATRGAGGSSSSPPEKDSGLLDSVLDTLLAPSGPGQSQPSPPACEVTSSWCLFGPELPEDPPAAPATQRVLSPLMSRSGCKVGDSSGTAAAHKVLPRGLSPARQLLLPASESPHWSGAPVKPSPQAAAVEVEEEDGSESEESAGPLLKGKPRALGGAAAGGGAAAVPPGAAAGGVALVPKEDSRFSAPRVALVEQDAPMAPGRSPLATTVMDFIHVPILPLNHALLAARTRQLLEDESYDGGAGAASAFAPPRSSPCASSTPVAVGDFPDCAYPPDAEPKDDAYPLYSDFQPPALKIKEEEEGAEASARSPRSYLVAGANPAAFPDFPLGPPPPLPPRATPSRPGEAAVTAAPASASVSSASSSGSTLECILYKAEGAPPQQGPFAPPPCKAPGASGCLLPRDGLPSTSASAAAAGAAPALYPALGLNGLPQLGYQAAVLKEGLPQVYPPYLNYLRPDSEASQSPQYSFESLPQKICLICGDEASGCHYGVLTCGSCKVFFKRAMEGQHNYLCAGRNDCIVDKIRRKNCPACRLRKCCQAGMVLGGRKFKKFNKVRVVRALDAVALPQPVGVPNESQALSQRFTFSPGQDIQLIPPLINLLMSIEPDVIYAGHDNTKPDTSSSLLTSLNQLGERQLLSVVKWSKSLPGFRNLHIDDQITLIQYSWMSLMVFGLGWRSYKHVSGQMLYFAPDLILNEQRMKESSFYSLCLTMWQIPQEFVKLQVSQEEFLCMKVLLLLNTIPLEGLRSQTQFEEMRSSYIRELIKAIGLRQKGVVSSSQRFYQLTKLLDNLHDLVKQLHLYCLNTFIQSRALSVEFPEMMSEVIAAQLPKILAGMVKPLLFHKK
Assay: qHTS assay to identify small molecule antagonists of the progesterone receptor (PR) signaling pathway (AID 1346795)
Settings: PR-UAS-bla HEK293T, beta-lactamase FRET ratio, 16 h; series mostly up to 92.4 µM
Text: National Center for Advancing Translational Sciences [NCATS] NIH Chemical Genomics Center [NCGC] U.S. Environmental Protection Agency [EPA] National Institutes of Environmental Health Sciences [NIEHS] National Toxicology Program [NTP] U.S. Food and Drug Administration [FDA] Progesterone receptor (PR), a nuclear hormone receptor, plays an important role in development, metabolic homeostasis and reproduction. […]
Records with an inconclusive call do not appear. The source made the active and inactive calls. Calls follow the shape of the dose curve; as a rule, active = well fitted inhibition curve with a large enough effect in the signal ratio in the repeat runs (not every such curve was filed as active); inconclusive = weak or mixed curves; inactive = flat fitted curve, though single readings scatter; the % refers to the signal ratio.
Returns: one label drawn from 1 (yes) for active, 0 (no) for inactive

Look over these answered cases.
1) COC(=O)c1cc(S(N)(=O)=O)ccc1OC = 0 (no)
2) CN(C(=O)C(Cl)Cl)c1ccc(OC(=O)c2ccco2)cc1 = 0 (no)
3) CCn1nc(C)c2c1C(=O)NCC(c1ccc(O)cc1)=N2 = 0 (no)
4) CN(C)C(=O)Nc1ccc(Oc2ccc(Cl)cc2)cc1 = 1 (yes)

Now let's try a different one.
Prompt: GET /call?item= CCCCC(=O)O[C@]1(C(=O)CO)CC[C@H]2[C@@H]3CCC4=CC(=O)CC[C@]4(C)[C@H]3[C@@H](O)C[C@@]21C returns the recorded outcome of this test.
Response: 0 (no)
